- STUDY TARGET: CYP3A4 (Homo sapiens)
- Construct: Using human liver microsomes pooled as an enzyme source; from tissue; host or cells: pooled human liver microsomes
- Sequence (P08684 whole entry): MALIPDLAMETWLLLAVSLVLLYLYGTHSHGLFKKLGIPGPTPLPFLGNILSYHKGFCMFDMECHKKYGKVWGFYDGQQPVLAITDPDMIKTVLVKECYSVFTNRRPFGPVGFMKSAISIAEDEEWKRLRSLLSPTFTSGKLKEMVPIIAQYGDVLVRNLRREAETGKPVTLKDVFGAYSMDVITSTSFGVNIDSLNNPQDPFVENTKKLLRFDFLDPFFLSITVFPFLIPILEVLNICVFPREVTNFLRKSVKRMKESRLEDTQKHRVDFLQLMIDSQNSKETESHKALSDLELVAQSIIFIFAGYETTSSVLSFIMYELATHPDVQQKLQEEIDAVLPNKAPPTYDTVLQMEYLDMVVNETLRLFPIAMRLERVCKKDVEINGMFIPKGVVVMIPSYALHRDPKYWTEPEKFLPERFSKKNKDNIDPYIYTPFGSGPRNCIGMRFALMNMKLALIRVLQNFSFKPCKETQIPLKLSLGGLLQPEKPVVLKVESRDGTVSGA
- MEASUREMENT PROTOCOL: Cytochrome P450 inhibitory action, CYP3A4 in human liver microsomes
- Assay type: in vitro ADME
- COND: pooled human liver microsomes, probe testosterone (50 M [sic]), substrate testosterone, 10 μM, read-out: inhibition rate in the shown concentration
MEASURE: inhibition at 10 min, 10 µM (%)
Numbers only here, please. The scale is %.

Give inhibition at 10 min, 10 µM; test system CYP3A4 (Homo sapiens); compound CC(=O)N1CCN(c2ccc(N)c(-n3ccnc3)c2)CC1
6
